# study.system: Mu-type opioid receptor (Homo sapiens, UniProt P35372)
# Sequence (P35372 whole entry): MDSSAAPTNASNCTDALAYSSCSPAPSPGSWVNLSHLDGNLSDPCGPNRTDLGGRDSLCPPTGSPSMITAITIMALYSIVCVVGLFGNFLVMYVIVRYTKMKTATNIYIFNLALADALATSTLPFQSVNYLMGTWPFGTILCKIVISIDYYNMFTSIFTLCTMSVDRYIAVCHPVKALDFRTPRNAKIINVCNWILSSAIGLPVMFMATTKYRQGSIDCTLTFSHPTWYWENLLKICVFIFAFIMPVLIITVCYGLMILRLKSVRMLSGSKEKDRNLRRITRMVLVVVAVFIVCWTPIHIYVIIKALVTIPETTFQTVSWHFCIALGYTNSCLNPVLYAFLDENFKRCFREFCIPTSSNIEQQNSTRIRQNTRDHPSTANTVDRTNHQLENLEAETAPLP
value.type: Ki (nM)

[
  {
    "smiles.entry": "CNC(=O)COCC(=O)NCCCCNC(=O)COCC(=O)N[C@H]1CC[C@@]2(O)[C@H]3Cc4cc(O)cc5c4[C@@]2(CCN3C)[C@H]1O5",
    "study.system": "Mu-type opioid receptor (Homo sapiens, UniProt P35372)",
    "value.type": "Ki",
    "result.value": 29.8
  }
]

###

# run.description: Displacement of [3H]DAMGO from CCK2R-MOPR coexpressed in CHO cells
Ki: recorded values

[
  {
    "smiles.entry": "CN1C(=O)[C@H](NC(=O)Nc2cccc(OCCNC(=O)COCC(=O)N[C@H]3CC[C@@]4(O)[C@H]5Cc6cc(O)cc7c6[C@@]4(CCN5C)[C@H]3O7)c2)N=C(c2ccccc2)c2ccccc21",
    "unit.abbrev": "nM",
    "Ki": 14.2
  },
  {
    "smiles.entry": "CN1C(=O)[C@H](NC(=O)Nc2cccc(OCCNC(=O)COCC(=O)NCCNC(=O)COCC(=O)N[C@H]3CC[C@@]4(O)[C@H]5Cc6cc(O)cc7c6[C@@]4(CCN5C)[C@H]3O7)c2)N=C(c2ccccc2)c2ccccc21",
    "unit.abbrev": "nM",
    "Ki": 7.3
  },
  {
    "smiles.entry": "CN1C(=O)[C@H](NC(=O)Nc2cccc(OCCNC(=O)COCC(=O)NNC(=O)COCC(=O)N[C@H]3CC[C@@]4(O)[C@H]5Cc6cc(O)cc7c6[C@@]4(CCN5C)[C@H]3O7)c2)N=C(c2ccccc2)c2ccccc21",
    "unit.abbrev": "nM",
    "Ki": 3.9
  },
  {
    "smiles.entry": "C[C@@H](NC(=O)[C@@H](N)Cc1ccc(O)cc1)C(=O)NCC(=O)N(C)[C@@H](Cc1ccccc1)C(=O)NCCO",
    "unit.abbrev": "nM",
    "Ki": 11
  },
  {
    "smiles.entry": "CN1C(=O)[C@H](NC(=O)Nc2cccc(OCCNC(=O)COCC(=O)NCCCCCCNC(=O)COCC(=O)N[C@H]3CC[C@@]4(O)[C@H]5Cc6cc(O)cc7c6[C@@]4(CCN5C)[C@H]3O7)c2)N=C(c2ccccc2)c2ccccc21",
    "unit.abbrev": "nM",
    "Ki": 16.3
  }
]
